experimental.target: HIV protease (Human immunodeficiency virus type 1 group M subtype B)
pIC50: −log10 of the molar value.
property.name: pIC50

Query string: Query for HIV protease (Human immunodeficiency virus type 1 group M subtype B): what pIC50 does the record show for "COc1cc(CN2CCN(C[C@@H](O)[C@H](Cc3ccccc3)NC(=O)O[C@@H]3CCS(=O)(=O)[C@@H]3C(C)C)[C@H](C(=O)NC(C)(C)C)C2)cc2c1OCO2" ?
Result string: ~8.92
